# Tested on: Plasmodium berghei
# experiment.summary: Screen against P. berghei liver stage (PbLuc), transformed with Luciferase, at 10uM
# Assay type: functional, HepG2
# setup.conditions: tested at 10 uM
Hit rate of the full screen: of about 69,000 compounds, about 8,600 (12%) showed an effect of 50% or more. For the sample, strong results were picked, then their nearest neighbours and some compounds at random.
INHIBITION below 10% gives Condition not met; INHIBITION at or above it gives Condition met.

>  <compound>
Cc1nnc(CN2C[C@H](NC(=O)C3CCOCC3)[C@@H](C(C)C)C2)s1

>  <system.under.test>
Plasmodium berghei

>  <qualitative.label>
Condition met

$$$$
>  <compound>
Cn1cc(-c2nc(CN3CCCCC3Cn3cncn3)cs2)cn1 (stereo not given)

>  <system.under.test>
Plasmodium berghei

>  <qualitative.label>
Condition not met

$$$$
>  <compound>
COc1ncc(-c2ccc(NC(C)=O)cc2)c(OC)n1

>  <system.under.test>
Plasmodium berghei

>  <qualitative.label>
Condition met

$$$$
>  <compound>
Cc1csc(CN2C[C@H](NC(=O)C3CCOCC3)[C@@H](C(C)C)C2)n1

>  <system.under.test>
Plasmodium berghei

>  <qualitative.label>
Condition met

$$$$
>  <compound>
CC(NC(=O)CSCC(N)=O)c1ccccc1Oc1ccccc1 (stereo not given)

>  <system.under.test>
Plasmodium berghei

>  <qualitative.label>
Condition met

$$$$
>  <compound>
COc1cccc(N2CCN(C(C(=O)O)c3ccc(OC)nc3)CC2)c1 (stereo not given)

>  <system.under.test>
Plasmodium berghei

>  <qualitative.label>
Condition met

$$$$
>  <compound>
Cc1ncsc1CN1C[C@H](NC(=O)C2CCOCC2)[C@@H](C(C)C)C1

>  <system.under.test>
Plasmodium berghei

>  <qualitative.label>
Condition met

$$$$
>  <compound>
OC1(CNCCSc2ccccn2)CNCCOC1 (stereo not given)

>  <system.under.test>
Plasmodium berghei

>  <qualitative.label>
Condition met

$$$$
>  <compound>
OC1(CNCCSc2ccccn2)CCCNC1 (stereo not given)

>  <system.under.test>
Plasmodium berghei

>  <qualitative.label>
Condition met

$$$$
>  <compound>
CCS(=O)(=O)CC(=O)NC(C)c1ccccc1Oc1ccccc1 (stereo not given)

>  <system.under.test>
Plasmodium berghei

>  <qualitative.label>
Condition not met

$$$$
>  <compound>
O=C(O)CC1COCCN1Cc1ccccc1-c1ccccc1 (stereo not given)

>  <system.under.test>
Plasmodium berghei

>  <qualitative.label>
Condition not met

$$$$
>  <compound>
OC1(CNCCN2CCc3ccccc32)CNCCOC1 (stereo not given)

>  <system.under.test>
Plasmodium berghei

>  <qualitative.label>
Condition met

$$$$
>  <compound>
COCC1CC2(CCN(CC3CC3)CC2)CN1c1ncccn1 (stereo not given)

>  <system.under.test>
Plasmodium berghei

>  <qualitative.label>
Condition met

$$$$
>  <compound>
CNC(=O)c1ccc(-c2ccc(CNC(=O)COC)cc2)nc1C

>  <system.under.test>
Plasmodium berghei

>  <qualitative.label>
Condition met

$$$$
>  <compound>
CC(C)C(=O)N1CCCc2c(cnn2-c2ccccc2)C1

>  <system.under.test>
Plasmodium berghei

>  <qualitative.label>
Condition not met

$$$$
>  <compound>
CN(C)CCN(Cc1ccccn1)Cc1ccnn1C1CCCCO1 (stereo not given)

>  <system.under.test>
Plasmodium berghei

>  <qualitative.label>
Condition met

$$$$
>  <compound>
CC(C)c1cc(C(=O)N2CCc3nc(C4CCCN4)ncc3C2)cs1 (stereo not given)

>  <system.under.test>
Plasmodium berghei

>  <qualitative.label>
Condition met

$$$$
>  <compound>
COc1cc(CNCCc2nc(C)cs2)cc2c1OCCO2

>  <system.under.test>
Plasmodium berghei

>  <qualitative.label>
Condition met

$$$$
>  <compound>
O=c1c2c[nH]c(N3CCOCC3)nc-2cn1Cc1cccc(F)c1

>  <system.under.test>
Plasmodium berghei

>  <qualitative.label>
Condition met

$$$$
>  <compound>
Cc1cc(C(=O)N2CCc3nc(C4CCCN4)ncc3C2)cs1 (stereo not given)

>  <system.under.test>
Plasmodium berghei

>  <qualitative.label>
Condition not met

$$$$
>  <compound>
O=C(O)CC1COCCN1Cc1ccccc1OCCc1ccccc1 (stereo not given)

>  <system.under.test>
Plasmodium berghei

>  <qualitative.label>
Condition not met

$$$$
>  <compound>
CC(NC(=O)CSCC(N)=O)c1ccc(Oc2ccccc2)cc1 (stereo not given)

>  <system.under.test>
Plasmodium berghei

>  <qualitative.label>
Condition not met

$$$$
>  <compound>
O=C(O)CC1COCCN1CCCc1ccccc1 (stereo not given)

>  <system.under.test>
Plasmodium berghei

>  <qualitative.label>
Condition met

$$$$
>  <compound>
COc1ccc([C@@H]2CN(C(=O)c3cscn3)C[C@H]2C(=O)O)cc1

>  <system.under.test>
Plasmodium berghei

>  <qualitative.label>
Condition not met

$$$$
>  <compound>
CCc1ncc2c(n1)CN(Cc1cnc(C)cn1)CC2

>  <system.under.test>
Plasmodium berghei

>  <qualitative.label>
Condition met

$$$$
